Assignment: determine reported OD450 absorbance for the given binders.
study_system: T1, QIEKLAEGKSQIQ (not fully specified)
T1 construct: member of the group m41; the text speaks of glycine substitution, the sheet prints alanine
T1 peptide: QIEKLAEGKSQIQ
protocol_summary: ELISA, immobilized peptide QIEKLAEGKSQIQ
No end group written: not given here.
Answers are plain numbers.

As a guide, the following entries are already answered.
binder: MM05 (antibody, IgG1, V domains shown) VH: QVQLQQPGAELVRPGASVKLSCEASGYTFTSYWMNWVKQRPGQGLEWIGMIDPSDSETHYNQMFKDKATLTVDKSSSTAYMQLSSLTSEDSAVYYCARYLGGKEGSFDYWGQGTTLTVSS VL: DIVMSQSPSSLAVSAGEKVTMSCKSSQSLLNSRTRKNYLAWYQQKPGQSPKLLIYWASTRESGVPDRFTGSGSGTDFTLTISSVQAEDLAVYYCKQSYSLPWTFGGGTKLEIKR
OD450 absorbance: 0.558
//
binder: MM08 (antibody, IgG1, V domains shown) VH: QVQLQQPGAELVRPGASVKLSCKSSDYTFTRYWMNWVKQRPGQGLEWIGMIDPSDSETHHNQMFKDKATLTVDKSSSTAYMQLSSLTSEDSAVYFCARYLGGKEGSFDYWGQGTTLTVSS VL: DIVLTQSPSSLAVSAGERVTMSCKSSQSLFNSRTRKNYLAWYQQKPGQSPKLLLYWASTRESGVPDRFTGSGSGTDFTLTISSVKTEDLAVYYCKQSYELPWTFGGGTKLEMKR
OD450 absorbance: 0.509
//
binder: MM07 (antibody, V domains shown, The VH and VL begin with what look like leader peptides (MDWLW..., MVSSAQ...)) VH: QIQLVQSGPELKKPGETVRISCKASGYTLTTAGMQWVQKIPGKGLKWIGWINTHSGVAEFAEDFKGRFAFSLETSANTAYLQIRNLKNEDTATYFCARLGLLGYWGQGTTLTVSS VL: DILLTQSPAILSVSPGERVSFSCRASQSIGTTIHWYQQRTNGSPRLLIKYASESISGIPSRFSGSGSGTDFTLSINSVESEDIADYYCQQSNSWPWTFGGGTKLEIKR
OD450 absorbance: 0.814

// next entry
Fill in the blank: the reported OD450 absorbance of MM14 (antibody, IgG2b, V domains shown) VH: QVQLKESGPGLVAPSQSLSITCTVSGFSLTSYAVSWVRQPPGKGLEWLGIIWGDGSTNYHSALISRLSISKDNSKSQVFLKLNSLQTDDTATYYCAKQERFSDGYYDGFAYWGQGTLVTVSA VL: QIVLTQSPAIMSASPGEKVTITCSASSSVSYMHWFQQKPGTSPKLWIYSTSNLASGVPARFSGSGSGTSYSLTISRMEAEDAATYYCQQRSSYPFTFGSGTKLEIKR is ____. 0.804
